experiment-description: anti-His antibody binders, primary screen, artefact control for SMM control protein annotation, biochemical, small-molecule microarray, 635 nm fluorescence (AID 1128);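 note: score merges feature fluorescence with signal-to-noise for each printed compound spot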
condition-description: anti-His Alexa647 antibody binding, higher = more signal
observable: composite z-score

> print(dat)
                                   compound  result.number
1  CCCCC(=C=CC[C@H](O)c1ccc(OCCO)cc1)C[C@H](O)c1ccccn1           1.67
2  CC(C)N1CC=CC23O[C@@H]4C=CCCOC(=O)C4[C@H]2C(=O)N(CCCCCO)[C@@H]3C1=O (stereo partly drawn)              3
3  COC(=O)[C@@]1(Cc2ccc(OC)cc2)[C@H]2c3cc(C(=O)N4CCCC4)n(CCc4ccc(OC)c(Br)c4)c3C[C@H]2CN1C(=O)c1ccccc1           1.66
4  COc1ccc(C#Cc2ccc3c(c2)[C@]2(C(=O)N3)[C@H](c3ccc(OCCO)cc3)N3[C@H](c4ccccc4)[C@H](c4ccccc4)OC(=O)[C@H]3[C@@H]2C(=O)O)cc1          0.406
5  COCC(=C=CC[C@@H](O)c1cccc(OCCO)c1)C[C@@H](O)COCc1ccccc1          0.934
6  C[C@H]1C2[C@H](Cc3ccccc3)NC(=O)[C@]23C(=O)NCC(=O)N2CCC[C@H]2C(=O)NC/C=C\C/C=C/C3[C@@H]2O[C@]12C (stereo partly drawn)         -0.151
7  COCC1=C([C@H](O)CCc2ccccc2)[C@H](CO)n2c(=O)n(-c3ccccc3)c(=O)n2C1         -0.507
8  Cc1ccccc1C(O)C1C=CC2C(=O)N(c3ccccc3)C(=O)C2N1Nc1ccccc1F (stereo not drawn)           2.08

====

experiment-description: compound binding in COS7 lysate, probe aLAP1, primary screen, cell lysate, small-molecule microarray (AID 1124);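 note: lysate comes from COS7 cells expressing LAP1 and is applied at 0.3 µg/mL; score merges spot fluorescence near 667 nm with signal-to-noise over triplicate slides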
condition-description: probe aLAP1, fluorescence, higher = more signal
observable: composite z-score

compound	observable	result-number
COCCOC(=O)N1C(=O)[C@@]2(c3ccccc31)[C@H](c1ccc(OCCO)cc1)N1[C@H](c3ccccc3)[C@H](c3ccccc3)OC(=O)[C@H]1[C@@H]2C(=O)N1CCN(c2ncccn2)CC1	composite z-score	0.282
CC1(C)OC[C@@]23C=C(Br)[C@@H](C[C@H]12)[C@@]1(CO1)C3=O	composite z-score	-0.0515
CCCCN1CC=CC23O[C@@H]4C=CCOC(=O)[C@@H]4[C@H]2C(=O)N(C(CO)C(C)C)[C@@H]3C1=O (some centres undefined)	composite z-score	-0.304
COCC(=C=CC[C@@H](O)c1ccc(OCCO)cc1)C[C@@H](O)COCc1ccccc1	composite z-score	0.686
COC(=O)[C@@]1(Cc2ccc(OC)cc2)[C@H]2c3cc(C(=O)N4CCCC4)n(CCc4ccc(OC)c(Br)c4)c3C[C@H]2CN1C(=O)c1ccccc1	composite z-score	1.11
Cc1c(NC(=O)/C(C#N)=C/c2ccc(Cl)cc2)c(=O)n(-c2ccccc2)n1C	composite z-score	0.761
C=CCC(OC(C)=O)[C@@H]1[C@@H](N(Cc2ccc(-c3cccc(C(F)(F)F)c3)o2)C(=O)Cc2ccc(OC)cc2)c2cc(OCCCO)ccc2N1C(=O)c1ccc2ccccc2n1 (some centres undefined)	composite z-score	-0.136
CCCC[C@@H]1C[C@H]1[C@@H](NC(=O)c1ccc(C(F)(F)F)cc1)c1ccc(C(=O)OC)cc1	composite z-score	1.25
CCCCN1CC=CC23O[C@@H]4C=CCOC(=O)[C@@H]4[C@H]2C(=O)N(CCO)[C@@H]3C1=O (some centres undefined)	composite z-score	-0.217
COCCOC(=O)N1C(=O)[C@@]2(c3cc(C#CCNC(N)=O)ccc31)[C@H](C(=O)NC[C@H](O)c1ccccc1)[C@H]1C(=O)O[C@H](c3ccccc3)[C@H](c3ccccc3)N1[C@@H]2c1ccc(OCCO)cc1	composite z-score	0.666
COC(=O)[C@@]1(Cc2ccccc2)[C@@H]2[C@@H](CC(=O)[C@H]2CC(=O)C(=O)N(C)C)CN1C(=O)c1ccccc1	composite z-score	0.712
COc1cc2c(cc1O)C(c1ccc(CN3CCCC3)cc1)N(Cc1cccc(OC(F)(F)F)c1)CC2 (centres undefined)	composite z-score	0.637
COCCOC(=O)N1C(=O)[C@@]2(c3cc(C#CC4(O)CCCCCC4)ccc31)[C@H](C(=O)N1CCc3cc(OC)c(OC)cc3C1)[C@H]1C(=O)O[C@H](c3ccccc3)[C@H](c3ccccc3)N1[C@@H]2c1ccc(O)cc1	composite z-score	0.773
COc1ccc(CCNC(=O)[C@@]2(Sc3ccc(C)cc3)CC(=O)N(Cc3cc(C(F)(F)F)cc(C(F)(F)F)c3)[C@@H]2c2ccc(CO)cc2)cc1	composite z-score	0.538
